B1: TOR1AIP2 (parent)
chain: YKYCDHENAAFKDVALVLTVLLEE

variants of: B1; test: protein stability index of a GFP-peptide fusion (GPS, HEK-293T) (PSI 1-6); higher = more stable; settings: c terminus: a fixed tail appended;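 further: lentivirally expressed fusions sorted by FACS into six bins by GFP to DsRed ratio, PSI derived from sequencing read proportions per bin multiplied by bin number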
# protein stability index per entry
Keep the answer to the number alone.

The examples below pair each entry with its known result.
V17G :: 2.05
V17S :: 3.6
L16N :: 2.88

What value of protein stability index has been recorded for this entry: "L18F"
2

Same lookup for "L18E" , please.
3.93

Same lookup for "C4G" , please.
1.35

Same lookup for "D13E" , please.
2.46
